System: palmer pigweed (Amaranthus palmeri)
protocolSummary: Test E pre-/postemergence greenhouse test, plant response rating 0-100
Format: in vivo
settings: Amaranthus palmeri, post-emergence; Postemergence, 62 g ai/ha; scale 0 to 100
measuredAttribute: pest or weed control at 62 g/ha

The cases that follow already have their pest or weed control at 62 g/ha on record.
- recordSmiles: "C#CCn1cc(C(=O)c2ccccc2)c(-c2cc(Cl)cc(Cl)c2)n1"
  targetEntity: "palmer pigweed (Amaranthus palmeri)"
  pest or weed control at 62 g/ha: "80%"
- recordSmiles: "CCn1cc(C(=O)c2ccccc2)c(-c2cc(Cl)cc(Cl)c2)n1"
  targetEntity: "palmer pigweed (Amaranthus palmeri)"
  pest or weed control at 62 g/ha: "60%"
- recordSmiles: "Cn1cc(C(=O)c2ccccc2)c(-c2cc(Cl)cc(Cl)c2)n1"
  targetEntity: "palmer pigweed (Amaranthus palmeri)"
  pest or weed control at 62 g/ha: "60%"
- recordSmiles: "CCCn1cc(C(=O)c2ccccc2)c(-c2cc(Cl)cc(Cl)c2)n1"
  targetEntity: "palmer pigweed (Amaranthus palmeri)"
  pest or weed control at 62 g/ha: "60%"
- recordSmiles: "CCOC(OCC)(c1ccccc1)c1c[nH]nc1-c1cc(Cl)cc(Cl)c1"
  targetEntity: "palmer pigweed (Amaranthus palmeri)"
  pest or weed control at 62 g/ha: "90%"

Looking for the measured pest or weed control at 62 g/ha of "O=C(c1ccccc1)c1cn(CO)nc1-c1cc(Cl)cc(Cl)c1" , can you help? 75%
